target: Phosphatidylinositol 4-kinase alpha (Homo sapiens, UniProt P42356)
MEASUREMENT KIND: IC50

IC50 lookup needed for Cc1nc(Nc2cccc(N3CCOCC3=O)n2)sc1-c1cc2c(c(S(=O)(=O)NC3COC3)c1)C(=O)N([C@@H](C)C1CC1)C2 , thanks.
> 10 µM

* * *

biological target: Phosphatidylinositol 4-phosphate 3-kinase C2 domain-containing subunit alpha (Homo sapiens); experiment: Inhibition of PIK3C2A (unknown origin) assessed as reduction in substrate phosphorylation by FRET Adapta assay
Sequence (O00443 whole entry, the tested form may be a part): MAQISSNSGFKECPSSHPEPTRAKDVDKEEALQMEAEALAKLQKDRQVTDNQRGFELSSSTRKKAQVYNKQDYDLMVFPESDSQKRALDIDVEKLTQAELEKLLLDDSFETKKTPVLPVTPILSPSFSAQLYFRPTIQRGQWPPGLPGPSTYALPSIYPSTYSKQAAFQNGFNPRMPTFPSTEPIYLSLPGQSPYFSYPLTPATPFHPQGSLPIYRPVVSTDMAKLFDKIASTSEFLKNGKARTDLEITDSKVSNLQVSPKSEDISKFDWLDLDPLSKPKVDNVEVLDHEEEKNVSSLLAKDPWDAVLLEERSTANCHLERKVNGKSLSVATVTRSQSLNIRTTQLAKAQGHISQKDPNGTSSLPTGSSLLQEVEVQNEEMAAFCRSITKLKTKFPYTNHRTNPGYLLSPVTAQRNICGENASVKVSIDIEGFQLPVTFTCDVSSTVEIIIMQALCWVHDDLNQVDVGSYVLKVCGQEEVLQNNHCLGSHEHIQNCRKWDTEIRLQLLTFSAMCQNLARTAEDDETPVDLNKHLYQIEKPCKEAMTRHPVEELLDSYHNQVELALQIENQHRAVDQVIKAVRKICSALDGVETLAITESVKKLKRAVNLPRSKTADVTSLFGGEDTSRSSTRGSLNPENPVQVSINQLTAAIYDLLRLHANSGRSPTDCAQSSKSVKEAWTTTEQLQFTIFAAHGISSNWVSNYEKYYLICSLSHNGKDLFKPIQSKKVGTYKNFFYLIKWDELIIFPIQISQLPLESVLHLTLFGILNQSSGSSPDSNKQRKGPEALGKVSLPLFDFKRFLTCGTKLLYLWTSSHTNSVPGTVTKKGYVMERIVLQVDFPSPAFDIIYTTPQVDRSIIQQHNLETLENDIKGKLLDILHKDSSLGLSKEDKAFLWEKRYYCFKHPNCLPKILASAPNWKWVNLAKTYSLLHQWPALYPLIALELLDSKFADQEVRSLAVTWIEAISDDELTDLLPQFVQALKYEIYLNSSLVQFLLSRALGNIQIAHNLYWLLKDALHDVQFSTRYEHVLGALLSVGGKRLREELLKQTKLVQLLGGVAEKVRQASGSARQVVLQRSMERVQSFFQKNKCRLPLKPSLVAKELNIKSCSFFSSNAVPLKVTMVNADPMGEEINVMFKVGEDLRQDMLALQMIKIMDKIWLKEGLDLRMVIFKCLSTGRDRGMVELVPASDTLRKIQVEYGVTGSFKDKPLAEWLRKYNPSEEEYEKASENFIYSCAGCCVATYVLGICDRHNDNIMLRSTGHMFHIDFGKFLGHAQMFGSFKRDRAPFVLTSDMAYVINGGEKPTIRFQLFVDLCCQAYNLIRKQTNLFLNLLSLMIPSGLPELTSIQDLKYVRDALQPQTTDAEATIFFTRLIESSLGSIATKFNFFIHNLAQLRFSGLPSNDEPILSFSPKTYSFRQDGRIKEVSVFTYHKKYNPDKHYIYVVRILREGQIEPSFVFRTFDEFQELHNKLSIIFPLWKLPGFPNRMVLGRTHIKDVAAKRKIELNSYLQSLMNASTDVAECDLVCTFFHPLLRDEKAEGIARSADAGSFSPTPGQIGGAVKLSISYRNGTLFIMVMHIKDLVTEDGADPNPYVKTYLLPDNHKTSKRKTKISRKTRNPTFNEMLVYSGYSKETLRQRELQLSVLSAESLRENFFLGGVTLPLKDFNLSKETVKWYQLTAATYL
Overview of recorded IC50 for various compounds
Write it as a number; the unit µM goes unstated.

Take a look at these entries with their results.
Cc1nc(Nc2cccc(N3CCOCC3=O)n2)sc1-c1cc2c(c(S(=O)(=O)NC3COC3)c1)C(=O)N([C@@H](C)C1CC1)C2    3.16
Cc1nc(Nc2cccc(N3CCCC3=O)n2)sc1-c1cc2c(c(S(C)(=O)=O)c1)C(=O)N([C@@H](C)C1CC1)C2    3.98

We now examine a further compound.
IC50 lookup needed for Cc1nc2sc1-c1cc3c(c(c1)S(=O)(=O)NCCOCCNC(=O)c1cccc(n1)N2)C(=O)N([C@@H](C)C1CC1)C3 , thanks.
0.316

* * *

assay: Oral bioavailability in rat at 1.0 mg/kg; type: ADME, organism-based; conditions: in vivo
MEASUREMENT KIND: bioavailability

bioavailability lookup needed for Cc1nc(Nc2cccc(N3CCCC3=O)n2)sc1-c1cc2c(c(S(C)(=O)=O)c1)C(=O)N([C@@H](C)C1CC1)C2 , thanks.
< 4%

* * *

molecular target: Phosphatidylinositol 4,5-bisphosphate 3-kinase catalytic subunit delta isoform (Homo sapiens, UniProt O00329); assay: Inhibition of recombinant human PI3Kdelta assessed as reduction in ADP production using Dic8-PIP2 as substrate pre-treated for 15 mins followed by substrate addition measured after 60 mins by ADP-glo assay
Sequence (O00329 whole entry, canonical isoform): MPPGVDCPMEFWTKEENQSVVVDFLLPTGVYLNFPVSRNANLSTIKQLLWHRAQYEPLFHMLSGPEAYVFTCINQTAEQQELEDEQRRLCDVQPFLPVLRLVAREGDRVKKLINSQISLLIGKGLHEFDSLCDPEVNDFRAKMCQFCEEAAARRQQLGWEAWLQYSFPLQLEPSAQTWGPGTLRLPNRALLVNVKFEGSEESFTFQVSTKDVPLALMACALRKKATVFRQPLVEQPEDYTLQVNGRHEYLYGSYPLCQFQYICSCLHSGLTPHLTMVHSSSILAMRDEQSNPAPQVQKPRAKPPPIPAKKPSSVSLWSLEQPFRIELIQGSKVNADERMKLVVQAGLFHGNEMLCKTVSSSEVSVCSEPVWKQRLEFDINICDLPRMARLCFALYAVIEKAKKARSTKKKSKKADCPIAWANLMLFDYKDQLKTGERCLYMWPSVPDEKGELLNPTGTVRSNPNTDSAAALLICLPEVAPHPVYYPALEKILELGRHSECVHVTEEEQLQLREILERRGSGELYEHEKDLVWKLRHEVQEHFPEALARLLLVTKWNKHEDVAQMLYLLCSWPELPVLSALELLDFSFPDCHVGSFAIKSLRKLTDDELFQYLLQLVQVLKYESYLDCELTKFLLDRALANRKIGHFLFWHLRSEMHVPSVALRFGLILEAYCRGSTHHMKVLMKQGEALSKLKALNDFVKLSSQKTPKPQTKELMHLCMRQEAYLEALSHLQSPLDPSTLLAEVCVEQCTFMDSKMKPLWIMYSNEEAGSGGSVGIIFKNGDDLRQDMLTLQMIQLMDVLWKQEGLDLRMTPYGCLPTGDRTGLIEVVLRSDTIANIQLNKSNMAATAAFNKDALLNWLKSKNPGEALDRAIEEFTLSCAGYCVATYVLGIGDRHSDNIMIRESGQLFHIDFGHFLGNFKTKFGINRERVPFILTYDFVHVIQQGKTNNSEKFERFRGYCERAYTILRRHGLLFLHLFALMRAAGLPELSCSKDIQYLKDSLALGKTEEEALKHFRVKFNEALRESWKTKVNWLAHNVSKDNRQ
Overview of recorded pIC50 for various compounds
pIC50 here: minus log base 10 of the concentration, concentration in moles per litre.

Take a look at these entries with their results.
COCCNC(=O)c1cccc(Nc2nc(C)c(-c3cc4c(c(S(C)(=O)=O)c3)C(=O)N([C@@H](C)C3CC3)C4)s2)n1    8.30
CC(=O)Nc1cccc(Nc2nc(C)c(-c3cc4c(c(S(C)(=O)=O)c3)C(=O)N([C@@H](C)C3CC3)C4)s2)n1    7.80
Cc1nc2sc1-c1cc3c(c(c1)S(=O)(=O)Nc1ccc(cc1)CN(C)CCCCNC(=O)c1cccc(n1)N2)C(=O)N([C@@H](C)C1CC1)C3    9.00
CNS(=O)(=O)c1cc(-c2sc(Nc3ccc(C(=O)NCCCN(C)C)cn3)nc2C)cc2c1C(=O)N([C@@H](C)C1CC1)C2    8.20
CC(=O)Nc1nc(C)c(-c2cc3c(c(S(=O)(=O)Nc4cccc(S(C)(=O)=O)c4)c2)C(=O)N([C@@H](C)C2CC2)C3)s1    8.50

pIC50 lookup needed for Cc1nc2sc1-c1cc3c(c(c1)S(=O)(=O)NCCCCCNC(=O)c1cccc(n1)N2)C(=O)N([C@@H](C)C1CC1)C3 , thanks.
9.30

And the next one, CNS(=O)(=O)c1cc(-c2sc(Nc3cccc(C)n3)nc2C)cc2c1C(=O)N([C@@H](C)C1CC1)C2 ?
7.30

And the next one, CC(=O)Nc1nc(C)c(-c2cc3c(c(S(=O)(=O)Nc4cccc(C#N)c4)c2)C(=O)N([C@@H](C)C2CC2)C3)s1 ?
8.00

And the next one, Cc1nc2sc1-c1cc3c(c(c1)S(=O)(=O)NCCOCCNC(=O)c1cccc(n1)N2)C(=O)N([C@@H](C)C1CC1)C3 ?
9.20

And the next one, CNS(=O)(=O)c1cc(-c2sc(Nc3cccc(N4CCOCC4=O)n3)nc2C)cc2c1C(=O)N([C@@H](C)C1CC1)C2 ?
9.20

And the next one, CC(=O)Nc1nc(C)c(-c2cc3c(c(S(=O)(=O)Nc4ccc(C#N)cc4)c2)C(=O)N([C@@H](C)C2CC2)C3)s1 ?
6.80

* * *

experiment: Volume of distribution at steady state in rat at 0.5 mg/kg, iv; assay type: ADME, organism-based; details: in vivo, read-out: Vdss
MEASUREMENT KIND: Vd (L/kg)
Write it as a number; the unit L/kg goes unstated.

Cc1nc2sc1-c1cc3c(c(c1)S(=O)(=O)NCCN(C)CCNC(=O)c1cccc(n1)N2)C(=O)N([C@@H](C)C1CC1)C3    7.3
Cc1nc(Nc2cccc(N3CCOCC3=O)n2)sc1-c1cc2c(c(S(=O)(=O)NC3COC3)c1)C(=O)N([C@@H](C)C1CC1)C2    5.4
Cc1nc(Nc2cccc(N3CCCC3=O)n2)sc1-c1cc2c(c(S(C)(=O)=O)c1)C(=O)N([C@@H](C)C1CC1)C2 [AZD-8154]    4

We now examine a further molecule.
Vd lookup needed for Cc1nc2sc1-c1cc3c(c(c1)S(=O)(=O)NCCOCCNC(=O)c1cccc(n1)N2)C(=O)N([C@@H](C)C1CC1)C3 , thanks.
8.6

* * *

target: Phosphatidylinositol 4,5-bisphosphate 3-kinase catalytic subunit delta isoform (Homo sapiens); test: Inhibition of PI3Kdelta in anti-IgM-stimulated human JeKo-1 cells assessed as inhibition of AKT phosphorylation at Ser473 residue incubated for 60 mins by TR-FRET assay
Overview of recorded pIC50 for various compounds
pIC50 here: minus log base 10 of the concentration, concentration in moles per litre.

Cc1nc(Nc2cccc(N3CCCC3=O)n2)sc1-c1cc2c(c(S(=O)(=O)NC3COC3)c1)C(=O)N([C@@H](C)C1CC1)C2    8.30
Cc1nc2sc1-c1cc3c(c(c1)S(=O)(=O)NCCOCCNC(=O)c1cccc(n1)N2)C(=O)N([C@@H](C)C1CC1)C3    8.70
CNS(=O)(=O)c1cc(-c2sc(Nc3cccc(N(C)C(C)=O)n3)nc2C)cc2c1C(=O)N([C@@H](C)C1CC1)C2    8.20

We now examine a further compound.
pIC50 lookup needed for CNS(=O)(=O)c1cc(-c2sc(Nc3cccc(N4CCNCC4=O)n3)nc2C)cc2c1C(=O)N([C@@H](C)C1CC1)C2 , thanks.
8.20

* * *

test: Permeability in human Caco2 cells; format: ADME, cell-based; conditions: caco-2
MEASUREMENT KIND: permeability

Cc1nc(Nc2cccc(N3CCCC3=O)n2)sc1-c1cc2c(c(S(C)(=O)=O)c1)C(=O)N([C@@H](C)C1CC1)C2 [AZD-8154]    Permeable
Cc1nc(Nc2cccc(N3CCOCC3=O)n2)sc1-c1cc2c(c(S(=O)(=O)NC3COC3)c1)C(=O)N([C@@H](C)C1CC1)C2    Impermeable
Cc1nc2sc1-c1cc3c(c(c1)S(=O)(=O)NCCN(C)CCNC(=O)c1cccc(n1)N2)C(=O)N([C@@H](C)C1CC1)C3    Impermeable
Cc1nc2sc1-c1cc3c(c(c1)S(=O)(=O)NCCOCCNC(=O)c1cccc(n1)N2)C(=O)N([C@@H](C)C1CC1)C3    Permeable

* * *

target: Phosphatidylinositol 4,5-bisphosphate 3-kinase catalytic subunit gamma isoform (Mus musculus, UniProt Q9JHG7); experiment: Inhibition of PI3Kgamma in C5a-stimulated mouse RAW 264 cells assessed as inhibition of AKT phosphorylation at Ser473 residue Pretreated for 15 mins followed by C5a stimulation measured after 3 mins by HTRF assay
Sequence (Q9JHG7 whole entry, canonical isoform): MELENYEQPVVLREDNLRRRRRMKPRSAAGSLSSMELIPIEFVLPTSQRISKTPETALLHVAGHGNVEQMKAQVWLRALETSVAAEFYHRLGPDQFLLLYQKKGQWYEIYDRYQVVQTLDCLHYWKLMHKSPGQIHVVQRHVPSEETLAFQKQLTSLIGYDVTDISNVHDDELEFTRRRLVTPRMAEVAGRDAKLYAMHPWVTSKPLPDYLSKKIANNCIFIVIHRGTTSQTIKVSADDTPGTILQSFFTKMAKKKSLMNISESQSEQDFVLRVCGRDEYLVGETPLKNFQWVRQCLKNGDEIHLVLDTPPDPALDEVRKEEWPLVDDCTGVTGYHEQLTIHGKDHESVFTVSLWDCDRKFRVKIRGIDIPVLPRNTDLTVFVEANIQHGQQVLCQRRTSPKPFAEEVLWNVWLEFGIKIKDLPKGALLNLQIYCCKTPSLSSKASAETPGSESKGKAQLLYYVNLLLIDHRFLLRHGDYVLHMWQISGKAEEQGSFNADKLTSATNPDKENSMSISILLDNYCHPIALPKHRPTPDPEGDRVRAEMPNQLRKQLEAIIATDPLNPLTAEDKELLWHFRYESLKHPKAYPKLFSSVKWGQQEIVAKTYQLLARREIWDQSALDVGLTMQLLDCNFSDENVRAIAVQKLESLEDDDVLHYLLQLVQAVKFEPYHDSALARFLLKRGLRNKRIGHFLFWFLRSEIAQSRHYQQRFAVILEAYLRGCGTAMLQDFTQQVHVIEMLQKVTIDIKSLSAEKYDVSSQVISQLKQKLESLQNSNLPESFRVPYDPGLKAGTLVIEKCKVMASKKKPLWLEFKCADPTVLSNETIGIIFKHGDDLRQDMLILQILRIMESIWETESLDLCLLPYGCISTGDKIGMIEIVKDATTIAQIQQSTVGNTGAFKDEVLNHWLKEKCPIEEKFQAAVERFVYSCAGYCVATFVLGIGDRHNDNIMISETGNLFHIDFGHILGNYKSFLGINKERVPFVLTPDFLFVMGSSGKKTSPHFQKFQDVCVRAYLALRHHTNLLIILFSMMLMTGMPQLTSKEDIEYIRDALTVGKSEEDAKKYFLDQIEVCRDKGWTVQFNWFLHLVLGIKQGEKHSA
MEASUREMENT KIND: IC50 (nM)
Write it as a number; the unit nM goes unstated.

Take a look at these entries with their results.
Cc1nc2sc1-c1cc3c(c(c1)S(=O)(=O)NCCN(C)CCNC(=O)c1cccc(n1)N2)C(=O)N([C@@H](C)C1CC1)C3    1.58
Cc1nc2sc1-c1cc3c(c(c1)S(=O)(=O)Nc1ccc(cc1)CN(C)CCCCNC(=O)c1cccc(n1)N2)C(=O)N([C@@H](C)C1CC1)C3    5.01
Cc1nc(Nc2cccc(N3CCCOC3=O)n2)sc1-c1cc2c(c(S(C)(=O)=O)c1)C(=O)N([C@@H](C)C1CC1)C2    1.26
Cc1nc2sc1-c1cc3c(c(c1)S(=O)(=O)NCCN(C)CCCNC(=O)c1cccc(n1)N2)C(=O)N([C@@H](C)C1CC1)C3    1

IC50 lookup needed for CNS(=O)(=O)c1cc(-c2sc(Nc3cccc(N4CC[C@@H](O)C4=O)n3)nc2C)cc2c1C(=O)N([C@@H](C)C1CC1)C2 , thanks.
2.51

And the next one, CNS(=O)(=O)c1cc(-c2sc(Nc3cccc(N4C[C@H](O)CC4=O)n3)nc2C)cc2c1C(=O)N([C@@H](C)C1CC1)C2 ?
2

And the next one, Cc1nc(Nc2cccc(N3CCCC3=O)n2)sc1-c1cc2c(c(S(=O)(=O)NC3COC3)c1)C(=O)N([C@@H](C)C1CC1)C2 ?
1
